assay: Solubility test in 10% CD or CD derivative solution; type: physicochemical; conditions: aqueous with cosolvent or surfactant or cyclodextrin, thermodynamic from solid, 10% 2,3,6-Tri-O-methyl-β-cyclodextrin solution, room temperature
MEASURED METRIC: solubility at 24 h (µg/mL)
Response body: numeric value in µg/mL, unit text excluded.

Reported solubility at 24 h of CNC(=O)[C@@](C)(C(=O)NO)N(C)C(=O)c1ccc(C#Cc2ccc([C@H](O)CO)cc2)cc1 [Compound A monohydrate] : 4700

----------
experiment: Solubility test in 10% CD or CD derivative solution; format: physicochemical; settings: water, thermodynamic from solid, None (no CD or CD derivative), room temperature
MEASURED METRIC: solubility at 24 h (µg/mL)
Response body: numeric value in µg/mL, unit text excluded.

Reported solubility at 24 h of CNC(=O)[C@@](C)(C(=O)NO)N(C)C(=O)c1ccc(C#Cc2ccc([C@H](O)CO)cc2)cc1 [Compound A monohydrate] : 200
